Data provenance is ChEMBL document CHEMBL5506062.

Listed here are compounds together with their documented AUClast.
Test: AUClast in female CD-1 mouse brain at 10 mg/kg, ip measured after 10 to 1440 mins by LC-MS/MS analysis
Format: ADME, organism-based
Settings: in vivo

[
  {
    "compound": "O=C(COc1cnc(N2C(=O)[C@@H]3[C@@H]4C=C[C@@H]([C@H]5C[C@@H]45)[C@@H]3C2=O)nc1)c1ccc(Cl)c(Cl)c1",
    "AUClast": "83823 ng·min/g"
  },
  {
    "compound": "COc1ccc(C(=O)C2CC2c2ccc(N3C(=O)[C@@H]4[C@@H]5C=C[C@@H]([C@H]6C[C@@H]56)[C@@H]4C3=O)c(F)c2)cc1Cl (some centres undefined)",
    "AUClast": "220405 ng·min/g"
  },
  {
    "compound": "COc1ccc(C(=O)C2CC2c2ccc(N3C(=O)[C@@H]4[C@@H]5C=C[C@@H]([C@H]6C[C@@H]56)[C@@H]4C3=O)cc2)cc1 (some centres undefined)",
    "AUClast": "294638 ng·min/g"
  },
  {
    "compound": "O=C(COc1ccc(N2C(=O)[C@@H]3[C@@H]4C=C[C@@H]([C@H]5C[C@@H]45)[C@@H]3C2=O)cc1)c1cc(Cl)cc(Cl)c1",
    "AUClast": "720503 ng·min/g"
  }
]

---

Experiment: Cmax in female CD-1 mouse plasma at 20 mg/kg, po measured after 0 to 1440 mins by LC-MS/MS analysis
Format: ADME, organism-based

[
  {
    "smiles.entry": "O=C(COc1ccc(N2C(=O)[C@@H]3[C@@H]4C=C[C@@H]([C@H]5C[C@@H]45)[C@@H]3C2=O)cc1)c1cc(Cl)cc(Cl)c1",
    "Cmax / ng/mL": 3400
  }
]

---

Test: Cmax in female CD-1 mouse brain at 5 mg/kg, iv measured after 0 to 1440 mins by LC-MS/MS analysis
Format: ADME, organism-based

[
  {
    "smiles.entry": "O=C(COc1ccc(N2C(=O)[C@@H]3[C@@H]4C=C[C@@H]([C@H]5C[C@@H]45)[C@@H]3C2=O)cc1)c1cc(Cl)cc(Cl)c1",
    "Cmax / ng/g": 3260
  }
]

---

Experiment: AUClast in female CD-1 mouse plasma at 5 mg/kg, iv measured after 0 to 1440 mins by LC-MS/MS analysis
Format: ADME, organism-based
observation.type: AUC(0-t) (ng·h/mL)

[
  {
    "smiles.entry": "O=C(COc1ccc(N2C(=O)[C@@H]3[C@@H]4C=C[C@@H]([C@H]5C[C@@H]45)[C@@H]3C2=O)cc1)c1cc(Cl)cc(Cl)c1",
    "observation.type": "AUC(0-t)",
    "display.unit": "ng·h/mL",
    "result": 14800
  }
]

---

Assay: Oral bioavailability in female CD-1 mouse plasma at 20 mg/kg measured after 0 to 1440 mins by LC-MS/MS analysis
Type: ADME, organism-based
observation.type: bioavailability (%)

[
  {
    "smiles.entry": "O=C(COc1ccc(N2C(=O)[C@@H]3[C@@H]4C=C[C@@H]([C@H]5C[C@@H]45)[C@@H]3C2=O)cc1)c1cc(Cl)cc(Cl)c1",
    "result": 39
  }
]

---

Assay: Cmax in female CD-1 mouse plasma at 5 mg/kg, iv measured after 0 to 1440 mins by LC-MS/MS analysis
Type: ADME, organism-based
observation.type: Cmax (ng/mL)

[
  {
    "smiles.entry": "O=C(COc1ccc(N2C(=O)[C@@H]3[C@@H]4C=C[C@@H]([C@H]5C[C@@H]45)[C@@H]3C2=O)cc1)c1cc(Cl)cc(Cl)c1",
    "observation.type": "Cmax",
    "result": 12000
  }
]

---

Test: Cmax in female CD-1 mouse brain at 20 mg/kg, po measured after 0 to 1440 mins by LC-MS/MS analysis
Format: ADME, organism-based

[
  {
    "smiles.entry": "O=C(COc1ccc(N2C(=O)[C@@H]3[C@@H]4C=C[C@@H]([C@H]5C[C@@H]45)[C@@H]3C2=O)cc1)c1cc(Cl)cc(Cl)c1",
    "Cmax": "2380 ng/g"
  }
]

---

Listed here are compounds together with their documented AUC(0-t).
Assay: AUClast in female CD-1 mouse plasma at 10 mg/kg, ip measured after 10 to 1440 mins by LC-MS/MS analysis
Assay type: ADME, organism-based

[
  {
    "compound": "COc1ccc(C(=O)C2CC2c2ccc(N3C(=O)[C@@H]4[C@@H]5C=C[C@@H]([C@H]6C[C@@H]56)[C@@H]4C3=O)cc2)cc1 (some centres undefined)",
    "AUC(0-t) (ng·h/mL)": 4350
  },
  {
    "compound": "O=C(COc1ccc(N2C(=O)[C@@H]3[C@@H]4C=C[C@@H]([C@H]5C[C@@H]45)[C@@H]3C2=O)cc1)c1cc(Cl)cc(Cl)c1",
    "AUC(0-t) (ng·h/mL)": 4830
  },
  {
    "compound": "COc1ccc(C(=O)C2CC2c2ccc(N3C(=O)[C@@H]4[C@@H]5C=C[C@@H]([C@H]6C[C@@H]56)[C@@H]4C3=O)c(F)c2)cc1Cl (some centres undefined)",
    "AUC(0-t) (ng·h/mL)": 7340
  },
  {
    "compound": "O=C(COc1cnc(N2C(=O)[C@@H]3[C@@H]4C=C[C@@H]([C@H]5C[C@@H]45)[C@@H]3C2=O)nc1)c1ccc(Cl)c(Cl)c1",
    "AUC(0-t) (ng·h/mL)": 4780
  }
]

---

Experiment: Oral bioavailability in female CD-1 mouse brain at 20 mg/kg measured after 0 to 1440 mins by LC-MS/MS analysis
Type: ADME, organism-based

[
  {
    "smiles.entry": "O=C(COc1ccc(N2C(=O)[C@@H]3[C@@H]4C=C[C@@H]([C@H]5C[C@@H]45)[C@@H]3C2=O)cc1)c1cc(Cl)cc(Cl)c1",
    "display.unit": "%",
    "bioavailability": 58
  }
]

---

Assay: Cmax in female CD-1 mouse brain at 10 mg/kg, ip measured after 10 to 1440 mins by LC-MS/MS analysis
Format: ADME, organism-based
observation.type: Cmax (ng/g)

[
  {
    "molecule": "O=C(COc1ccc(N2C(=O)[C@@H]3[C@@H]4C=C[C@@H]([C@H]5C[C@@H]45)[C@@H]3C2=O)cc1)c1cc(Cl)cc(Cl)c1",
    "result": 2530
  },
  {
    "molecule": "COc1ccc(C(=O)C2CC2c2ccc(N3C(=O)[C@@H]4[C@@H]5C=C[C@@H]([C@H]6C[C@@H]56)[C@@H]4C3=O)cc2)cc1 (some centres undefined)",
    "result": 992
  },
  {
    "molecule": "COc1ccc(C(=O)C2CC2c2ccc(N3C(=O)[C@@H]4[C@@H]5C=C[C@@H]([C@H]6C[C@@H]56)[C@@H]4C3=O)c(F)c2)cc1Cl (some centres undefined)",
    "result": 1110
  },
  {
    "molecule": "O=C(COc1cnc(N2C(=O)[C@@H]3[C@@H]4C=C[C@@H]([C@H]5C[C@@H]45)[C@@H]3C2=O)nc1)c1ccc(Cl)c(Cl)c1",
    "result": 978
  }
]

---

Assay: Tmax in female CD-1 mouse brain at 5 mg/kg, iv measured after 0 to 1440 mins by LC-MS/MS analysis
Assay type: ADME, organism-based

[
  {
    "smiles.entry": "O=C(COc1ccc(N2C(=O)[C@@H]3[C@@H]4C=C[C@@H]([C@H]5C[C@@H]45)[C@@H]3C2=O)cc1)c1cc(Cl)cc(Cl)c1",
    "Tmax, min": 5
  }
]

---

Assay: AUClast in female CD-1 mouse plasma at 20 mg/kg, po measured after 0 to 1440 mins by LC-MS/MS analysis
Format: ADME, organism-based

[
  {
    "smiles.entry": "O=C(COc1ccc(N2C(=O)[C@@H]3[C@@H]4C=C[C@@H]([C@H]5C[C@@H]45)[C@@H]3C2=O)cc1)c1cc(Cl)cc(Cl)c1",
    "AUC(0-t) (ng·h/mL)": 23100
  }
]

---

Experiment: Tmax in female CD-1 mouse plasma at 5 mg/kg, iv measured after 0 to 1440 mins by LC-MS/MS analysis
Assay type: ADME, organism-based

[
  {
    "smiles.entry": "O=C(COc1ccc(N2C(=O)[C@@H]3[C@@H]4C=C[C@@H]([C@H]5C[C@@H]45)[C@@H]3C2=O)cc1)c1cc(Cl)cc(Cl)c1",
    "Tmax": "5 min"
  }
]

---

Assay: Tmax in female CD-1 mouse plasma at 10 mg/kg, ip measured after 10 to 1440 mins by LC-MS/MS analysis
Format: ADME, organism-based

[
  {
    "molecule": "COc1ccc(C(=O)C2CC2c2ccc(N3C(=O)[C@@H]4[C@@H]5C=C[C@@H]([C@H]6C[C@@H]56)[C@@H]4C3=O)cc2)cc1 (some centres undefined)",
    "Tmax": "10 min"
  },
  {
    "molecule": "O=C(COc1ccc(N2C(=O)[C@@H]3[C@@H]4C=C[C@@H]([C@H]5C[C@@H]45)[C@@H]3C2=O)cc1)c1cc(Cl)cc(Cl)c1",
    "Tmax": "30 min"
  },
  {
    "molecule": "COc1ccc(C(=O)C2CC2c2ccc(N3C(=O)[C@@H]4[C@@H]5C=C[C@@H]([C@H]6C[C@@H]56)[C@@H]4C3=O)c(F)c2)cc1Cl (some centres undefined)",
    "Tmax": "30 min"
  },
  {
    "molecule": "O=C(COc1cnc(N2C(=O)[C@@H]3[C@@H]4C=C[C@@H]([C@H]5C[C@@H]45)[C@@H]3C2=O)nc1)c1ccc(Cl)c(Cl)c1",
    "Tmax": "10 min"
  }
]
